Tested on: CEM cells HIV-1 protection, formazan growth assay
method_summary: NCI AIDS Antiviral Assay
Description: The ability of compounds to protect human CEM cells from HIV-1 infection is measured as a screen for new compounds capable of inhibiting the HIV virus. Five concentrations of drug were tested on uninfected and infected cells and cell growth was measured using a soluble formazan assay. […] Compounds that provided at least 50% protection were retested. Compounds that provided at least 50% protection on retest were listed as moderately active. […]
Answer each item with its documented EC50.

Task item: State the recorded EC50 for this entry: CC1(Cl)CC2OC3(Br)C=CC(C)(O)C2(CC1Br)C3(C)C (configuration not stated)
Reply: > 102 µM

Task item: State the recorded EC50 for this entry: CCOC(=O)C(Cl)(NC(=O)c1ccc(F)cc1)C(F)(F)F (configuration not stated)
Reply: > 200 µM

Task item: State the recorded EC50 for this entry: "O=C1c2ccccc2C(=O)N1/N=C\c1ccc(O)cc1"
Reply: > 135 µM

Task item: State the recorded EC50 for this entry: "COCc1cc2c(cc1/C(=C/[N+](=O)[O-])CS(=O)(=O)c1ccccc1)OCO2"
Reply: > 200 µM

Task item: State the recorded EC50 for this entry: "O=C1c2cccc3cccc(c23)C(=O)N1CCCN(CCO)CCO"
Reply: > 200 µM

Task item: State the recorded EC50 for this entry: "CN(C)c1cc(CN[C@@H](Cc2cn(C(c3ccccc3)(c3ccccc3)c3ccccc3)cn2)C(=O)O)nc(CN[C@@H](Cc2cn(C(c3ccccc3)(c3ccccc3)c3ccccc3)cn2)C(=O)O)c1"
Reply: > 100 µM

Task item: State the recorded EC50 for this entry: CCC1C(=O)OCc2ccccc21 (configuration not stated)
Reply: > 200 µM

Task item: State the recorded EC50 for this entry: O=C1CC2C3CC1C2C(=O)O3 (configuration not stated)
Reply: > 200 µM

Task item: State the recorded EC50 for this entry: C1=CC2C(C3CN(c4ccccc4)N=C13)C1C3C4C=CC21C=CC43 (configuration not stated)
Reply: > 200 µM

Task item: State the recorded EC50 for this entry: COC(=O)C(NC(=O)CNC(=O)CSc1nnc(COc2ccc(Cl)cc2)n1-c1ccccc1)C(C)C (configuration not stated)
Reply: > 200 µM

Task item: State the recorded EC50 for this entry: "O=C(OCc1ccccc1)N1CCNCCN(C(=O)OCc2ccccc2)CCNCC1"
Reply: > 200 µM

Task item: State the recorded EC50 for this entry: "O=C1C=C(Nc2ccccc2C(=O)CC(=O)C(=O)Nc2cccc([N+](=O)[O-])c2)c2ccccc2C1=O"
Reply: > 20.9 µM

Task item: State the recorded EC50 for this entry: O=C1CC2(CCC(O)(c3cccc4ccccc34)C(C(=O)c3cccc4ccccc34)C2)C(=O)c2ccccc2N1 (configuration not stated)
Reply: > 200 µM

Task item: State the recorded EC50 for this entry: CN(Cc1nc2c(N)nc(N)nc2[nH]c1=O)c1ccc(C(=O)NC(CCC(=O)O)C(=O)O)cc1 (configuration not stated)
Reply: > 200 µM

Task item: State the recorded EC50 for this entry: "O=NCC(=O)OCc1ccccc1"
Reply: > 200 µM

Task item: State the recorded EC50 for this entry: O=C(N/C(=C\c1ccccc1)C1Nc2ccccc2C(=O)O1)c1ccccc1 (configuration not stated)
Reply: > 200 µM

Task item: State the recorded EC50 for this entry: "COP(=O)(N/N=C/C(=O)O)OC"
Reply: > 1260 µM
